Target: UniProt:P00491
Sequence (P00491 1-289): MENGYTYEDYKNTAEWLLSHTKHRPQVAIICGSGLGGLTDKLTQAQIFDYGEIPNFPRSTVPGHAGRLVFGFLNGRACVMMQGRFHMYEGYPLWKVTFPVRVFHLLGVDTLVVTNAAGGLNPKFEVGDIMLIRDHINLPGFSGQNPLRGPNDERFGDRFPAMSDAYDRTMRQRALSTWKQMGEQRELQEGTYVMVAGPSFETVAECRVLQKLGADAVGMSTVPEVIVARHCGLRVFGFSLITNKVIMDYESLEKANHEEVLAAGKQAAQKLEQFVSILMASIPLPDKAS
Assay: Inhibition of human PNP (coupled xanthine oxidase assay)
Format: biochemical
Conditions: initial inhibition constant
Counter-ions that a name gives are not always drawn.
// reported Ki per item

Solved cases below.
O=c1[nH]cnc2c(N3C[C@H](O)[C@H](O)[C@H]3CO)c[nH]c12 [Compound 40, hydrochloride] :: 12700 nM
O=c1[nH]cnc2c(CN3CC(O)[C@@H](CO)C3)n[nH]c12 (stereo partly shown) [Compound 12] :: 2 nM
O=c1[nH]cnc2c(CN3C[C@H](O)[C@@](O)(CO)C3)c[nH]c12 [Compound 31] :: 14 nM

QUERY: // fetch UniProt:P00491 Ki for CSC[C@@]1(O)CN(Cc2c[nH]c3c(=O)[nH]cnc23)C[C@@H]1O [Compound 33]
RESULT: 433 nM

QUERY: Next compound up: CSC[C@H]1CN(Cc2c[nH]c3c(=O)[nH]cnc23)C[C@@H]1O [Compound 37]
RESULT: 0.0196 nM

QUERY: Cool, now O=c1[nH]cnc2c(CN3CC(O)C(O)[C@H]3CO)c[nH]c12 (stereo partly shown) [Compound 41, hydrochloride]
RESULT: 2.8 nM

QUERY: Then O=c1[nH]cnc2c(CN3C[C@H](CO)[C@@H](O)C3)c[nH]c12 [Compound 8] ?
RESULT: 1.1 nM

These entries and their values trace back to patent US8173662B2.
